# Assayed system: human GLP-1 receptor (human, UniProt P43220 24-463)
# Test name: cell-based or functional assay
*1 amine or outer side, *2 acyl side, *3 side chain or, on linkers, in order; H or OH if unused. Where no end group is shown, it is not given here. Side-chain parts run from the residue outwards. [ ]: non-standard residue; d: D form. The star is where a group is joined. Decanoyl(10-(4-HOOC-PhO)) = O=C(O)c1ccc(OCCCCCCCCCC(=O)*)cc1; αMePhe(2-F) = C[C@](N)(Cc1ccccc1F)C(=O)O; γGlu = O=C(O)[C@H](CCC(=O)[*:2])N[*:1]; αMeY = C[C@](N)(Cc1ccc(O)cc1)C(=O)O; αMeL = CC(C)C[C@](C)(N)C(=O)O; Orn = NCCC[C@H](N)C(=O)O; AEEA = NCCOCCOCC(=O)O; Aib = CC(C)(N)C(=O)O
Below, each entry is listed with its recorded cAMP Emax (1.0% HSA).
Supply the numeric figure in %, leaving out any unit text.

Consider the reported cAMP Emax (1.0% HSA) for these binders:
- Binder: "YXEGTXTSDXXIXLDXIAQXKFIXXLIEGGPSSGAPPPSK (Y-Aib-EGT-αMeF(2F)-TSD-4Pal-Aib-I-αMeL-LD-Orn-IAQ-Aib-K(2-[2-(2-Amino-ethoxy)-ethoxy]-acetyl)2-(γ-Glu)-(11-(4-carboxyphenoxy)undecanoyl)FI-(D-Glu)-αMeY-LIEGGPSSGAPPPSK((2-[2-(2-Amino-ethoxy)-ethoxy]-acetyl)2-(γ-Glu)-(11-(4-carboxyphenoxy)undecanoyl)-NH2)) [Example 242]"
  cAMP Emax (1.0% HSA) / %: 102
- Binder: "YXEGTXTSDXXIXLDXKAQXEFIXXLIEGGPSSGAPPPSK (Y-Aib-EGT-αMeF(2F)-TSD-4Pal-Aib-I-αMeL-LD-Orn-K((2-[2-(2-Amino-ethoxy)-ethoxy]-acetyl)2-(γ-Glu)-CO-(CH2)10-CH3)AQ-Aib-EFI-(D-Glu)-αMeY-LIEGGPSSGAPPPSK((2-[2-(2-Amino-ethoxy)-ethoxy]-acetyl)2-(γ-Glu)-CO-(CH2)10-CH3)-NH2) [Example 324]"
  cAMP Emax (1.0% HSA) / %: 99.4

Q: // cAMP Emax (1.0% HSA) lookup, key: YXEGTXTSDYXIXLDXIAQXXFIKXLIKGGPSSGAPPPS (Y-Aib-EGT-αMeF(2F)-TSDY-Aib-I-αMeL-LD-Orn-IAQ-Aib-Orn-FIK((2-[2-(2-Amino-ethoxy)-ethoxy]-acetyl)2-(γ-Glu)-CO-(CH2)12-CO2H)-αMeY-LIK((2-[2-(2-Amino-ethoxy)-ethoxy]-acetyl)2-(γ-Glu)-CO-(CH2)12-CO2H)GGPSSGAPPPS-NH2) [Example 316]
Result: 113

Q: // same read-out, input: YXEGTXTSDYXIXLDXKAQXXFIXXLIKGGPSSGAPPPS (Y-Aib-EGT-αMeF(2F)-TSDY-Aib-I-αMeL-LD-Orn-K((2-[2-(2-Amino-ethoxy)-ethoxy]-acetyl)2-(γ-Glu)-(10-(4-carboxyphenoxy)decanoyl))AQ-Aib-Om-FI-(D-Glu)-αMeY-LIK((2-[2-(2-Amino-ethoxy)-ethoxy]-acetyl)2-(γ-Glu)-(10-(4-carboxyphenoxy)decanoyl))GGPSSGAPPPS-NH2) [Example 352]
Result: 93.5

Q: // same read-out, input: Y[Aib]EGT[αMePhe(2-F)]TSDV[Aib]I[αMeL]LD[Orn]K([AEEA-AEEA-γGlu-Decanoyl(10-(4-HOOC-PhO))])AQ[Aib]EFI[dE][αMeY]LIK([AEEA-AEEA-γGlu-Decanoyl(10-(4-HOOC-PhO))])GGPSSGAPPPS-NH2 [Example 326]
Result: 96.1
